Where these numbers come from: ChEMBL document CHEMBL3739426

Tested on: MCF7
Test: Cytotoxicity against human MCF7 cells after 48 hrs by MTT assay
Type: functional, cell-based
Settings: MCF7, 48 h
So I've got a bunch of compounds here, and I need their IC50 values.

Short answer for O=C(O)[C@H]1C[C@@H](C(=O)O)[C@H]2ON=C(c3ccc(Br)cc3)[C@H]21 : IC50 was > 50 µg/mL

Short answer for OC[C@@H]1C[C@H](CO)[C@@H]2C(c3ccc(Cl)cc3)=NO[C@H]12 : IC50 was 14.7 µg/mL

Short answer for O=C(O)[C@H]1C[C@@H](C(=O)O)[C@H]2ON=C(c3ccc4ccccc4c3)[C@H]21 : IC50 was 31.8 µg/mL

Short answer for COC(=O)[C@H]1C[C@@H](C(=O)OC)[C@H]2ON=C(c3ccc(OC)c(OC)c3)[C@H]21 : IC50 was > 50 µg/mL

Short answer for COC(=O)[C@H]1C[C@@H](C(=O)OC)[C@H]2ON=C(c3ccc(Br)cc3)[C@H]21 : IC50 was > 50 µg/mL

Short answer for COC(=O)[C@H]1C[C@@H](C(=O)OC)[C@H]2ON=C(c3ccc(C#N)cc3)[C@H]21 : IC50 was > 50 µg/mL

Short answer for Cc1ccc(C2=NO[C@@H]3[C@H](CO)C[C@H](CO)[C@H]23)cc1 : IC50 was > 50 µg/mL

Short answer for COc1ccc(C2=NO[C@@H]3[C@H](CO)C[C@H](CO)[C@H]23)cc1 : IC50 was 23.7 µg/mL

Short answer for COC(=O)[C@H]1C[C@@H](C(=O)OC)[C@H]2ON=C(c3ccc(C)cc3)[C@H]21 : IC50 was > 50 µg/mL

Short answer for OC[C@@H]1C[C@H](CO)[C@@H]2C(c3ccc4ccccc4c3)=NO[C@H]12 : IC50 was 11.5 µg/mL

Short answer for COC(=O)[C@H]1C[C@@H](C(=O)OC)[C@H]2ON=C(c3ccc(Cl)cc3)[C@H]21 : IC50 was > 50 µg/mL

Short answer for COC(=O)[C@H]1C[C@@H](C(=O)OC)[C@H]2ON=C(c3ccc(OC)cc3)[C@H]21 : IC50 was > 50 µg/mL

Short answer for O=C(O)[C@H]1C[C@@H](C(=O)O)[C@H]2ON=C(c3ccccc3Cl)[C@H]21 : IC50 was > 50 µg/mL

Short answer for O=C(O)[C@H]1C[C@@H](C(=O)O)[C@H]2ON=C(c3ccc(F)cc3)[C@H]21 : IC50 was > 50 µg/mL

Short answer for COc1ccc(C2=NO[C@H]3[C@@H]2[C@@H](C(=O)O)C[C@H]3C(=O)O)cc1 : IC50 was > 50 µg/mL

Short answer for COC(=O)[C@H]1C[C@@H](C(=O)OC)[C@H]2ON=C(c3ccc(F)cc3)[C@H]21 : IC50 was 39.4 µg/mL

Short answer for OC[C@@H]1C[C@H](CO)[C@@H]2C(c3ccc(F)cc3)=NO[C@H]12 : IC50 was > 50 µg/mL

Short answer for COC(=O)[C@H]1C[C@@H](C(=O)OC)[C@H]2ON=C(c3ccc4ccccc4c3)[C@H]21 : IC50 was > 50 µg/mL

Short answer for OC[C@@H]1C[C@H](CO)[C@@H]2C(c3ccc(Br)cc3)=NO[C@H]12 : IC50 was > 50 µg/mL

Short answer for OC[C@@H]1C[C@H](CO)[C@@H]2C(c3ccccc3Cl)=NO[C@H]12 : IC50 was > 50 µg/mL

Short answer for Cc1ccc(C2=NO[C@H]3[C@@H]2[C@@H](C(=O)O)C[C@H]3C(=O)O)cc1 : IC50 was > 50 µg/mL
